# Test system: Lewis lung carcinoma i.m., BDF1 mice, T/C %
# procedure-summary: NCI In Vivo Anticancer Drug Screen. Data for tumor model Lewis Lung Carcinoma (intramuscular) in B6D2F1 (BDF1) mice
# experimental-conditions: endpoint: median survival time; dose: 8.0 mg/kg/injection; schedule: Q01DX009 (ip); vehicle: water; higher = longer survival
Records with an inconclusive call do not appear.
Please go through the items and note down their T/C.

*Q* Please look at this compound and report its T/C: COC(=O)C1Cc2cncn2C(=O)N1 (stereo unspecified)
*A* 108 % of control

*Q* Please look at this compound and report its T/C: Cc1c(C(=O)O)nc(/C=C/C(=O)O)[nH]c1=O
*A* 108 % of control

*Q* Please look at this compound and report its T/C: CCOC(=O)C(CS)NC(=O)CCNC(C)=O (stereo unspecified)
*A* 119 % of control

*Q* Please look at this compound and report its T/C: CC(C(=O)O)N1C(=O)c2ccccc2C1=O (stereo unspecified)
*A* 107 % of control

*Q* Please look at this compound and report its T/C: Cc1nc(N)c(C)c(C(=O)O)n1
*A* 105 % of control

*Q* Please look at this compound and report its T/C: CCOC(=O)c1nc(C)[nH]c(=O)c1C
*A* 109 % of control

###

Please go through the items and note down their T/C.
# Tested on: Lewis lung carcinoma i.m., BDF1 mice, T/C %
# procedure-summary: NCI In Vivo Anticancer Drug Screen. Data for tumor model Lewis Lung Carcinoma (intramuscular) in B6D2F1 (BDF1) mice
# experimental-conditions: endpoint: median survival time; dose: 6.0 mg/kg/injection; schedule: Q01DX011 (ip); vehicle: saline; higher = longer survival
Inconclusive results are not listed.

*Q* Please look at this compound and report its T/C: O=NN(CCCl)C(=O)NCCCl
*A* 157 % of control

*Q* Please look at this compound and report its T/C: CC(=O)OC1CC(OC2C(O)CC(OC3C(O)CC(OC4CCC5(C)C(CCC6C5CCC5(C)C(C7=CC(=O)OC7)C(O)CC65O)C4)OC3C)OC2C)OC(C)C1OC1OC(CO)C(O)C(O)C1O (stereo not given)
*A* 110 % of control

*Q* Please look at this compound and report its T/C: CC(=O)n1cc(F)c(=O)[nH]c1=O
*A* 98 % of control

*Q* Please look at this compound and report its T/C: Cc1cc(/C=C/c2cc[n+](C)c3ccccc23)c(O)c2ncccc12
*A* 102 % of control

*Q* Please look at this compound and report its T/C: O=S(=O)(O)SCCNCCCCCC1CCCCC1
*A* 96 % of control

###

Please go through the items and note down their T/C.
# Tested on: Lewis lung carcinoma i.m., BDF1 mice, T/C %
# procedure-summary: NCI In Vivo Anticancer Drug Screen. Data for tumor model Lewis Lung Carcinoma (intramuscular) in B6D2F1 (BDF1) mice
# experimental-conditions: endpoint: mean tumor weight (est.); dose: 50.0 mg/kg/injection; schedule: Q01DX011 (ip); vehicle: saline with Tween-80; higher = larger tumour
Records with an inconclusive call do not appear.

*Q* Recall the reported T/C of COc1cc(OC)c(OC)cc1/C=C\c1ccnc2ccccc12 when tested on Lewis lung carcinoma i.m., BDF1 mice, T/C %.
*A* 60 % of control

*Q* Recall the reported T/C of Nc1ncnc2c1ncn2Cc1ccccc1 when tested on Lewis lung carcinoma i.m., BDF1 mice, T/C %.
*A* 76 % of control

*Q* Recall the reported T/C of COc1ccc(OC)c(/C=C/c2ccnc3ccccc23)c1 when tested on Lewis lung carcinoma i.m., BDF1 mice, T/C %.
*A* 84 % of control

*Q* Recall the reported T/C of CSC(=S)N/N=C/c1ccccn1 when tested on Lewis lung carcinoma i.m., BDF1 mice, T/C %.
*A* 50 % of control

*Q* Recall the reported T/C of CCCCC/C(C)=N\Nc1ccccn1 when tested on Lewis lung carcinoma i.m., BDF1 mice, T/C %.
*A* 80 % of control

*Q* Recall the reported T/C of CCCCn1cnc2c(N)ncnc21 when tested on Lewis lung carcinoma i.m., BDF1 mice, T/C %.
*A* 77 % of control

*Q* Recall the reported T/C of O=c1ccc2nc3ccccc3sc-2c1 when tested on Lewis lung carcinoma i.m., BDF1 mice, T/C %.
*A* 78 % of control

*Q* Recall the reported T/C of Nc1nc(Cl)nc2c1ncn2C1OC(CO)C(O)C1O (stereo not drawn) when tested on Lewis lung carcinoma i.m., BDF1 mice, T/C %.
*A* 72 % of control

*Q* Recall the reported T/C of CCC/C(C)=N/Nc1ccccn1 when tested on Lewis lung carcinoma i.m., BDF1 mice, T/C %.
*A* 81 % of control

*Q* Recall the reported T/C of OCN(CO)c1nc(N(CO)CO)nc(N(CO)CO)n1 when tested on Lewis lung carcinoma i.m., BDF1 mice, T/C %.
*A* 85 % of control

*Q* Recall the reported T/C of CS(=O)(=O)c1cc(C(F)(F)F)cc([N+](=O)[O-])c1Cl when tested on Lewis lung carcinoma i.m., BDF1 mice, T/C %.
*A* 63 % of control

*Q* Recall the reported T/C of CN(C)c1nc(N(C)C)nc(N(C)C)n1 when tested on Lewis lung carcinoma i.m., BDF1 mice, T/C %.
*A* 97 % of control

*Q* Recall the reported T/C of O=C1C(=O)c2ccccc2C(O)=C1CC=C(Cl)Cl when tested on Lewis lung carcinoma i.m., BDF1 mice, T/C %.
*A* 79 % of control

*Q* Recall the reported T/C of CCCCNC(C)(C)COC(=O)/C=C/c1ccc(OCCCC)cc1 when tested on Lewis lung carcinoma i.m., BDF1 mice, T/C %.
*A* 67 % of control

*Q* Recall the reported T/C of COc1c(C)c2c(c(O)c1C/C=C(\C)CCC(=O)O)C(=O)OC2 when tested on Lewis lung carcinoma i.m., BDF1 mice, T/C %.
*A* 71 % of control

*Q* Recall the reported T/C of CC1=Nc2ccccc2/C1=C\c1c(C)[nH]c2ccccc12 when tested on Lewis lung carcinoma i.m., BDF1 mice, T/C %.
*A* 68 % of control

*Q* Recall the reported T/C of OCCNC1c2ccccc2-c2ccccc21 when tested on Lewis lung carcinoma i.m., BDF1 mice, T/C %.
*A* 91 % of control

*Q* Recall the reported T/C of CCOC(=O)N1c2ccccc2C=CC1C#N (stereo not drawn) when tested on Lewis lung carcinoma i.m., BDF1 mice, T/C %.
*A* 67 % of control
